Target: 5-HT4(b) variant (Homo sapiens, UniProt Q13639)
Test: Radioligand saturation binding, membranes of transfected COS-7 cells
parameter: pKd
Answers are plain numbers, as −log10 of the molar value.

Prompt line: I have this compound here, Cn1cc(C(=O)OCC2CCN(CCNS(C)(=O)=O)CC2)c2ccccc21 [[^3H]GR113808] , and I need its recorded pKd.
Response line: 9.72

---

human 5-HT4(h) receptor (Homo sapiens): recorded Ki for assorted compounds
Sequence (Q13639 1-402 isoform Q13639-6): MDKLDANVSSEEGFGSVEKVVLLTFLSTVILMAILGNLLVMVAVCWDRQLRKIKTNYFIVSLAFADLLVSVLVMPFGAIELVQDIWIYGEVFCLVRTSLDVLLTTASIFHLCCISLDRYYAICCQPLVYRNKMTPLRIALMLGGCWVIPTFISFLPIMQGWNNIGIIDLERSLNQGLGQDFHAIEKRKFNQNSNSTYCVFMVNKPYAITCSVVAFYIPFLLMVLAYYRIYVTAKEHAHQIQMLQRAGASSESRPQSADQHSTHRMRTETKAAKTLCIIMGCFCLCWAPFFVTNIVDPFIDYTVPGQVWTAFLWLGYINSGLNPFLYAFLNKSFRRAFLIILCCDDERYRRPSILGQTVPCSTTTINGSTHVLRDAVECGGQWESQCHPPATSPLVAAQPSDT
Numbers only, in nM.

Look at each compound and report its Ki.
1. CCCCCNC(=N)N/N=C/c1c[nH]c2ccc(OC)cc12
2. CCOc1cc(N)c(Cl)cc1C(=O)NCC1CN(Cc2ccc(F)cc2)CCO1 (centres unmarked) [Mosapride]

Response line:
1. 25.7
2. 141
